measurement.target: catalytic domain (JH1, amino acids 808-1132) of human JAK2 (Homo sapiens (Human), UniProt O60674)
Sequence (O60674 808-1132): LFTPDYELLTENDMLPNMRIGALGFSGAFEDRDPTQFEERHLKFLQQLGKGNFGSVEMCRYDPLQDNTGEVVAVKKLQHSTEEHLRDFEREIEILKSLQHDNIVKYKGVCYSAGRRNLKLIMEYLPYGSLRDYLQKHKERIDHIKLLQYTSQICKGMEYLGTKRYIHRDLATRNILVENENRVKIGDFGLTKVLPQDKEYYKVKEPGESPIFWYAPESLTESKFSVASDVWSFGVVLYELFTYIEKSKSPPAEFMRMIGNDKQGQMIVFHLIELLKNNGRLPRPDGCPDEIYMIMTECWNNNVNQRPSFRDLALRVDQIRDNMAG
experimental.details: JAK2 HTRF Enzyme Activity Assay
experimental.setup: JAK2 0.015 nM, ATP (30 μM or 1 mM), 60 minutes at 25° C.
pIC50: −log10 of the molar value.
Provide the recorded pIC50 for the entries that follow.

For each of the compounds below, note its pIC50.
1. Cc1cc(-c2c(-c3ccc(C(=O)Nc4ccc5oc(C)nc5c4)cc3)c3c4cc(-c5cnn(C)c5)[nH]c4ncc3n(C)c2=O)on1 [Example 26]
2. Cc1cc(-c2c(-c3ccc(-c4cnn(C)c4CO)cc3)c3c4cc(-c5cnn(C)c5)[nH]c4ncc3n(C)c2=O)on1 [Example 32]

1. 6.30 to 7.00
2. 6.30 to 7.00

For each of the compounds below, note its pIC50.
1. CN(C)C(=O)c1ccc(-c2c(-c3cnn(C)c3)[nH]c3ncc4c(cc(Nc5ccc(Cc6nnn[nH]6)cc5)c(=O)n4C)c23)cc1 [Example 35]
2. Cc1c(-c2ccc3c(c2)OCCO3)c(=O)[nH]c2cnc3[nH]c(-c4ccc(CN5CCC(S(C)(=O)=O)CC5)cc4)cc3c12 [Example 19]
3. COC1CCC(c2c(-c3cc(C)no3)c(=O)n(C)c3cnc4[nH]c(-c5cnn(C)c5)cc4c23)CC1 (stereo not shown) [Example 22]
4. Cn1nccc1-c1cc2c(cnc3[nH]c(-c4ccc(CN5CCC(S(C)(=O)=O)CC5)cc4)cc32)[nH]c1=O [Example 4]

["≥ 7.00", "5.00 to 6.00", "6.30 to 7.00", "5.00 to 6.00"]
